# protocol-description: qHTS assay to identify small molecule antagonists of the estrogen receptor alpha (ER-alpha) signaling pathway using the BG1 cell line in the presence of 0.1 nM 17-beta-estradiol - cell viability counter screen (AID 1259241); note: nearly all actives have a fitted effect of over 40% in size
# settings: VM7Luc4E2 (BG1) viability, CellTiter-Fluor protease, 22 h, 0.1 nM estradiol agonist added; series mostly up to 92.4 µM
Results filed as inconclusive are left out. The source made the active and inactive calls. Calls come from the whole dose curve; as a rule, active = well fitted cell-killing curve with a large enough effect in the repeat runs; inconclusive = weak or mixed curves, or effect the other way; inactive = flat fitted curve, though single readings scatter.
Outcomes: Yes = active, No = inactive

compound-structure	group-label
C[C@]12CC[C@H]3[C@@H](CCC4=CC(=O)CC[C@@H]43)[C@@H]1CC[C@@H]2O	No
NC(=O)CN1CCCC1=O	No
CCOP(=S)(OCC)OP(=S)(OCC)OCC	No
CC[n+]1c(-c2ccccc2)c2cc(N)ccc2c2ccc(N)cc21	Yes
[CH3][Sn]([Cl])([Cl])[Cl]	No
Oc1ccc(Cl)cc1Cl	No
CCCCOCCOC(C)=O	No
NN=C(N)N	No
COP(=S)(OC)SCn1nnc2ccccc2c1=O	No
COP(=S)(OC)Oc1ccc(S(=O)(=O)N(C)C)cc1	No
OCCOCCO	No
CCC/C=N/O	No
Clc1cccc(Cl)c1	No
CCOP(=O)(OCC)OCC	No
Cl	No
CNC(=S)S	No
CN(C)c1nc(=O)n(C2CCCCC2)c(=O)n1C	No
Cc1ccc([N+](=O)[O-])cc1	No
COc1ccc(C=O)cc1OC	No
CCCCSP(=O)(SCCCC)SCCCC	No
O=C(O)c1nn(Cc2ccc(Cl)cc2Cl)c2ccccc12	No
C[N+](C)(C)C	No
CCNCC	No
CCCCCCCCCCCCCl	No
O=NN1CCOCC1	No
CN(C)P(=O)(N(C)C)N(C)C	No
O=C1CCCO1	No
[Cl-].[Cl-].[Cl-].[Fe+3]	No
CCOP(=S)(OCC)SCn1c(=O)oc2cc(Cl)ccc21	No
Brc1ccc(Br)cc1	No
Oc1ccc(Cl)cc1Cc1ccccc1	No

* * *

# experimental-system: Estrogen receptor beta (Homo sapiens) (UniProt Q92731)
# Sequence (Q92731 whole entry, looked up): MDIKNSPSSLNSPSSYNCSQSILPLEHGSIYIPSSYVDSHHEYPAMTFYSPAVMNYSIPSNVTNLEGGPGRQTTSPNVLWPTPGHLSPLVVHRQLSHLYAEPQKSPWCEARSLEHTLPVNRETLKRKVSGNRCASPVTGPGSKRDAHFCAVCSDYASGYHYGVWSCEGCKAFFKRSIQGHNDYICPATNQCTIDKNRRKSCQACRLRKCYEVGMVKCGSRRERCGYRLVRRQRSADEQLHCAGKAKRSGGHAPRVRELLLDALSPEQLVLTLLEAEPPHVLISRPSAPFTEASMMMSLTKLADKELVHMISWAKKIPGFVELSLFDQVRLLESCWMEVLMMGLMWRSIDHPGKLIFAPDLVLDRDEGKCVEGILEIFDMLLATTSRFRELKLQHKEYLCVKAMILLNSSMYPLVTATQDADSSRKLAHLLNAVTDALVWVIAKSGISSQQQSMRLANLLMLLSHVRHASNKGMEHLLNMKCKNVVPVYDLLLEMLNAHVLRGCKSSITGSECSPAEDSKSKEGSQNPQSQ
# protocol-description: qHTS assay to identify small molecule antagonists of the estrogen receptor beta (ER-beta) signaling pathway (AID 1259378)
# settings: ER-beta-UAS-bla HEK293T, beta-lactamase FRET ratio, 16 h; series mostly up to 92.4 µM
# Source text: National Center for Advancing Translational Sciences [NCATS] NIH Chemical Genomics Center [NCGC] U.S. Environmental Protection Agency [EPA] National Institutes of Environmental Health Sciences [NIEHS] National Toxicology Program [NTP] U.S. Food and Drug Administration [FDA] Estrogen receptor (ER), a nuclear hormone receptor, plays an important role in development, metabolic homeostasis and reproduction. […]
Records with an inconclusive call do not appear. Active and inactive are the calls of the source. The call rests on the fitted dose curve; in most records, active means well fitted inhibition curve with a large enough effect in the signal ratio in the repeat runs (not every such curve was filed as active); inconclusive means weak or mixed curves, or effect the other way; inactive means no such curve, though single readings can be large or run the other way; the % refers to the signal ratio.
Classes used: active, inactive

molecule	experimental-system	group-label
CC1(C)C(C(=O)OC(C#N)c2cccc(Oc3ccccc3)c2)C1(C)C (configuration not stated)	Estrogen receptor beta (Homo sapiens) (UniProt Q92731)	active
Clc1cccc(C(Cl)(Cl)Cl)n1	Estrogen receptor beta (Homo sapiens) (UniProt Q92731)	inactive
COP(=O)(NC(C)=O)SC (configuration not stated)	Estrogen receptor beta (Homo sapiens) (UniProt Q92731)	inactive
CC(C)=CC1C(C(=O)OCc2cccc(Oc3ccccc3)c2)C1(C)C (configuration not stated)	Estrogen receptor beta (Homo sapiens) (UniProt Q92731)	inactive
CCCCSP(=O)(SCCCC)SCCCC	Estrogen receptor beta (Homo sapiens) (UniProt Q92731)	inactive
CCCCCCCCCCCCCl	Estrogen receptor beta (Homo sapiens) (UniProt Q92731)	inactive
OCCOCCO	Estrogen receptor beta (Homo sapiens) (UniProt Q92731)	inactive

The measurements presented in this section are drawn from PubChem BioAssay (Tox21).
